Cited source for all entries: patent US9018208B2

System: SH-SY5Y M-currents (KCNQ2, KCNQ3 and KCNQ5)
Assay: SH-SY5Y native cell line FLIPR assay (voltage-sensitive dye DiBAC)
Type: cell-based, mouse neuroblastoma, rat glioma hybrid cell line
Details: FLIPR assay, SH-SY5Y native cell line; Table 2; read-out: SH-SY5Y EC50
pEC50: −log10 of the molar value.
This section presents molecules with their documented pEC50 values.

Worked cases, pEC50 given:
O=C(Cc1ccc(F)cc1Cl)Nc1nc2ccc(F)cn2c1-c1ccc(F)cc1 [Compound 140] : 5.00 to 5.52
O=C(Cc1ccc(F)cc1)Nc1nc2ncccn2c1-c1cccc(OC(F)(F)F)c1 [Compound 324] : 5.00 to 5.52
CC(CC(=O)Nc1nc2ccc(F)cn2c1-c1cccc(Cl)c1)C(F)(F)F (stereo not shown) [Compound 315] : 5.52 to 6.30
O=C(CC1CC1)Nc1nc2ccc(F)cn2c1-c1ccc(OC(F)(F)F)cc1 [Compound 171] : 5.52 to 6.30

Notebook: O=C(Cc1cccc(F)c1)Nc1nc2ccc(F)cn2c1-c1ccc(OC(F)(F)F)cc1 [Compound 240] , pEC50 read as > 6.30

Lab note: measured pEC50 of CC(C)(C)CC(=O)Nc1nc2ccc(Br)cn2c1-c1ccc(F)cc1 [Compound 152] was > 6.30
